Molecular target: Protein phosphatase 1 catalytic subunit (PPP1CA)
Assay: Inhibitory concentration against protein phosphatase 1 (PP1) was determined
READOUT_LABEL: IC50

[
  {
    "GIVEN_SMILES": "CC(C)C[C@H](C(=O)O)N1C(=O)[C@@H]2[C@H](C1=O)[C@H]1CC[C@@H]2O1",
    "ASSAY_SYSTEM": "Protein phosphatase 1 catalytic subunit (PPP1CA)",
    "RESULT": "> 1000 µM"
  },
  {
    "GIVEN_SMILES": "CC(C)C[C@@H](C(=O)O)N1C(=O)[C@@H]2[C@H](C1=O)[C@H]1CC[C@@H]2O1",
    "ASSAY_SYSTEM": "Protein phosphatase 1 catalytic subunit (PPP1CA)",
    "RESULT": "> 1000 µM"
  },
  {
    "GIVEN_SMILES": "O=C(O)[C@H](Cc1ccccc1)N1C(=O)[C@@H]2[C@H](C1=O)[C@H]1CC[C@@H]2O1",
    "ASSAY_SYSTEM": "Protein phosphatase 1 catalytic subunit (PPP1CA)",
    "RESULT": "> 1000 µM"
  },
  {
    "GIVEN_SMILES": "O=C(O)CC[C@H](C(=O)O)N1C(=O)[C@@H]2[C@H](C1=O)[C@H]1CC[C@@H]2O1",
    "ASSAY_SYSTEM": "Protein phosphatase 1 catalytic subunit (PPP1CA)",
    "RESULT": "95 µM"
  },
  {
    "GIVEN_SMILES": "O=C(O)[C@@H](Cc1ccccc1)N1C(=O)[C@@H]2[C@H](C1=O)[C@H]1CC[C@@H]2O1",
    "ASSAY_SYSTEM": "Protein phosphatase 1 catalytic subunit (PPP1CA)",
    "RESULT": "> 1000 µM"
  }
]
